# Ki against Prostaglandin E2 receptor EP3 subtype (Homo sapiens), merged from multiple literature sources
# Sequence (P43115 whole entry): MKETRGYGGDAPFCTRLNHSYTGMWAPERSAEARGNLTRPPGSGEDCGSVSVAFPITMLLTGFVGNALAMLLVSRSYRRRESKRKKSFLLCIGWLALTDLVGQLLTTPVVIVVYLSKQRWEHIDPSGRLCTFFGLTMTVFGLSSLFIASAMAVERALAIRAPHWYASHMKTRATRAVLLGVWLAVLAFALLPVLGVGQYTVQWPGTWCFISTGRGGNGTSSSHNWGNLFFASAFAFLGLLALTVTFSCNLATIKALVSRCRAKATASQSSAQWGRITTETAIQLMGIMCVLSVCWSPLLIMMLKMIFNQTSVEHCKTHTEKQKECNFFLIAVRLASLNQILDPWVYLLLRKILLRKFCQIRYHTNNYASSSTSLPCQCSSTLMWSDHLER

Consider the reported Ki for these compounds:
1) C[C@H](NC(=O)c1cccc2ccn(Cc3cc(Cl)cc(OC(F)(F)F)c3)c12)c1ccc(C(=O)O)cc1    ≥ 0.26 µM
2) O=C(O)CCCCCCN1C(=O)CC[C@@H]1/C=C/C(O)c1cccc(-c2cccc(Cl)c2)c1 (stereo partly specified)    > 100 µM
3) O=C([O-])COc1cccc(C[C@@H]2CCCC=C2c2nc(-c3ccccc3)c(-c3ccccc3)o2)c1.[Na+]    > 1 µM
4) CN(C(=O)NCCc1ccccc1)S(=O)(=O)c1ccccc1-c1ccc(CN2C(=O)c3ccccc3CCc3ccccc32)cc1    > 100 µM
5) O=C(O)c1cccc(C[C@@H]2CCCC=C2c2nc(-c3ccccc3)c(-c3ccccc3)o2)c1    > 3 µM

Return Ki measured with Prostaglandin E2 receptor EP3 subtype (Homo sapiens) given this compound: C[C@H](NC(=O)[C@H]1CCCCN1CCOc1ccccc1)c1ccc(C(=O)O)cc1.Cl
> 12.7 µM
